target: CRK 124-198, P46108
Sequence (P46108 124-198): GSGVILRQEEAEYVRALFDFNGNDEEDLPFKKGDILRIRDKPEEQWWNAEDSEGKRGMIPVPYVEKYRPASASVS
experimental_readout: selected by phage display

LMDISPFLPEKGLPST [MTCL1, Q9Y4B5] ... confidence 3 (active)
DDTVEMPLPKKLKSVT [TPR, P12270] ... confidence 2 (active)
ELPVSPEIPPRKSQYL [IL31RA, Q8NI17] ... confidence 2 (active)
ADLPPKLQKMAGGAAR [KCNJ3, P48549] ... confidence 4 (active)
NDNSEYVPMLPGKFLG [IRS4, O14654] ... confidence 3 (active)
SSSAHLPPKDRPVTVF [MYO9A, B2RTY4] ... confidence 2 (active)
KEPPAKVPEVPKKIVV [TTN, Q8WZ42] ... confidence 3 (active)
PSAPQLPPRDSPRALM [PPARGC1B, Q86YN6] ... confidence 2 (active)

So what's the measured selected by phage display for this one? NTQPPLPFKEAHVSGH [ZNF804A, Q7Z570] confidence 4 (active)

I'd like to know its selected by phage display. The binder in question is PGLQAPPLPPRVGLPT [VPS37B, Q9H9H4] confidence 4 (active)

Given KPMLPAKFGQPQGSPA [SIM2, Q14190] , state its recorded selected by phage display. confidence 2 (active)

# lookup: selected by phage display of PPVPPKSEAVREEARL [GAREM1, Q9H706] confidence 4 (active)

# lookup: selected by phage display of PALPSKLLSSGSAKAD [IL17RD, Q8NFM7] confidence 3 (active)

# lookup: selected by phage display of FSMQEPMVPAKLGTQA [PPFIA4, O75335] confidence 3 (active)

Field request: selected by phage display | item: SQEALPPKKRDLPVTS [ATXN1L, P0C7T5] confidence 3 (active)
